assay: Metabolic stability, pooled human liver microsome incubations; conditions: pHLM, 3 min
measurement.label: % parent compound remaining, Average (%)

[[record]]
molecule = "COC(=O)[C@H](NC(=O)c1nn(CCCCF)c2ccccc12)C(C)(C)C [(R)-4F-MDMB-BINACA (4)]"
measurement_label = "% parent compound remaining, Average"
value = 78.8

[[record]]
molecule = "COC(=O)[C@@H](NC(=O)c1nn(CCCCCF)c2ccccc12)C(C)(C)C [(S)-5F-MDMB-PINACA (2)]"
measurement_label = "% parent compound remaining, Average"
value = 69.9

[[record]]
molecule = "C=CCCCn1nc(C(=O)N[C@H](C(=O)OC)C(C)(C)C)c2ccccc21 [(S)-MDMB-4en-PINACA (5)]"
measurement_label = "% parent compound remaining, Average"
value = 72.3

[[record]]
molecule = "COC(=O)C(NC(=O)c1nn(Cc2ccc(F)cc2)c2ccccc12)C(C)C (stereo in doubt) [(R)-AMB-FUBINACA (1)]"
measurement_label = "% parent compound remaining, Average"
value = 57.2

[[record]]
molecule = "COC(=O)[C@@H](NC(=O)c1nn(Cc2ccc(F)cc2)c2ccccc12)C(C)C [(S)-AMB-FUBINACA (1)]"
measurement_label = "% parent compound remaining, Average"
value = 3.8

[[record]]
molecule = "COC(=O)[C@@H](NC(=O)c1cn(CCCCCF)c2ccccc12)C(C)(C)C [(S)-5F-MDMB-PICA (3)]"
measurement_label = "% parent compound remaining, Average"
value = 63.9

[[record]]
molecule = "COC(=O)[C@@H](NC(=O)c1nn(CCCCCF)c2ccccc12)C(C)C [(S)-5F-AMB-PINACA (10)]"
measurement_label = "% parent compound remaining, Average"
value = 10.6


---

assay: Metabolic stability, pooled human liver microsome incubations; conditions: pHLM, 30 min
measurement.label: % parent compound remaining, Average (%)

[[record]]
compound = "COC(=O)[C@@H](NC(=O)c1cn(CCCCCF)c2ccccc12)C(C)(C)C [(S)-5F-MDMB-PICA (3)]"
unit_abbrev = "%"
value = 12.8

[[record]]
compound = "C=CCCCn1nc(C(=O)N[C@H](C(=O)OC)C(C)(C)C)c2ccccc21 [(S)-MDMB-4en-PINACA (5)]"
unit_abbrev = "%"
value = 3.1

[[record]]
compound = "CC(C)[C@@H](NC(=O)c1nn(Cc2ccc(F)cc2)c2ccccc12)C(N)=O [(R)-AB-FUBINACA (8)]"
unit_abbrev = "%"
value = 83.9

[[record]]
compound = "COC(=O)C(NC(=O)c1nn(Cc2ccc(F)cc2)c2ccccc12)C(C)C (stereo in doubt) [(R)-AMB-FUBINACA (1)]"
unit_abbrev = "%"
value = 6.8

[[record]]
compound = "C=CCCCn1cc(C(=O)N[C@H](C(=O)OC)C(C)(C)C)c2ccccc21 [(S)-MDMB-4en-PICA (12)]"
unit_abbrev = "%"
value = 5.6

[[record]]
compound = "COC(=O)[C@H](NC(=O)c1cn(CCCCCF)c2ccccc12)C(C)(C)C [(R)-5F-MDMB-PICA (3)]"
unit_abbrev = "%"
value = 16.4

[[record]]
compound = "COC(=O)[C@H](NC(=O)c1nn(CCCCCF)c2ccccc12)C(C)(C)C [(R)-5F-MDMB-PINACA (2)]"
unit_abbrev = "%"
value = 8.7


---

The following molecules are listed with their measured CLint scaled at 0.5 µM values.
test: Metabolic stability, pooled human liver microsome incubations; settings: human, microsomes, pH 7.4, Intrinsic clearance, CLint, pHLM, alternative microsomal scaling factor 45 mg microsomal protein per gram liver
measurement.label: CLint scaled at 0.5 µM

[[record]]
molecule = "COC(=O)[C@@H](NC(=O)c1nn(CCCCCF)c2ccccc12)C(C)C [(S)-5F-AMB-PINACA (10)]"
measurement_label = "CLint scaled at 0.5 µM"
value = "1730 mL/min/kg"

[[record]]
molecule = "COC(=O)[C@@H](NC(=O)c1nn(Cc2ccc(F)cc2)c2ccccc12)C(C)(C)C [(S)-MDMB-FUBINACA (6)]"
measurement_label = "CLint scaled at 0.5 µM"
value = "156 mL/min/kg"

[[record]]
molecule = "CC(C)[C@H](NC(=O)c1nn(Cc2ccc(F)cc2)c2ccccc12)C(N)=O [(S)-AB-FUBINACA (8)]"
measurement_label = "CLint scaled at 0.5 µM"
value = "14.1 mL/min/kg"


---

assay: Metabolic stability, pooled human liver microsome incubations; conditions: pHLM, 3 min
// classify: if (% parent compound remaining, Average < 70%) YES else NO

[[record]]
compound = "C=CCCCn1cc(C(=O)N[C@@H](C(=O)OC)C(C)(C)C)c2ccccc21 [(R)-MDMB-4en-PICA (12)]"
category_label = "YES"

[[record]]
compound = "COC(=O)C(NC(=O)c1nn(CCCCCF)c2ccccc12)C(C)C (stereo in doubt) [(R)-5F-AMB-PINACA (10)]"
category_label = "YES"

[[record]]
compound = "COC(=O)[C@H](NC(=O)c1cn(CCCCCF)c2ccccc12)C(C)(C)C [(R)-5F-MDMB-PICA (3)]"
category_label = "NO"

[[record]]
compound = "C=CCCCn1cc(C(=O)N[C@@H](C(=O)OC)C(C)C)c2ccccc21 [(R)-AMB-4en-PICA (7)]"
category_label = "YES"

[[record]]
compound = "COC(=O)[C@H](NC(=O)c1nn(Cc2ccc(F)cc2)c2ccccc12)C(C)(C)C [(R)-MDMB-FUBINACA (6)]"
category_label = "NO"

[[record]]
compound = "COC(=O)[C@@H](NC(=O)c1nn(CCCCF)c2ccccc12)C(C)(C)C [(S)-4F-MDMB-BINACA (4)]"
category_label = "NO"

[[record]]
compound = "C=CCCCn1cc(C(=O)N[C@H](C(=O)OC)C(C)C)c2ccccc21 [(S)-AMB-4en-PICA (7)]"
category_label = "YES"

[[record]]
compound = "CC(C)[C@H](NC(=O)c1nn(Cc2ccc(F)cc2)c2ccccc12)C(N)=O [(S)-AB-FUBINACA (8)]"
category_label = "NO"


---

The following compounds are listed with their measured Intrinsic clearance, CLint values.
experiment: Metabolic stability, pooled human liver microsome incubations; conditions: pHLM, alternative microsomal scaling factor 32 mg microsomal protein per gram liver
measurement.label: Intrinsic clearance, CLint (L/h/kg)

[[record]]
compound = "C=CCCCn1cc(C(=O)N[C@@H](C(=O)OC)C(C)(C)C)c2ccccc21 [(R)-MDMB-4en-PICA (12)]"
value = 12.8

[[record]]
compound = "COC(=O)[C@H](NC(=O)c1cn(CCCCCF)c2ccccc12)C(C)(C)C [(R)-5F-MDMB-PICA (3)]"
value = 6.48

[[record]]
compound = "COC(=O)[C@H](NC(=O)c1nn(CCCCCF)c2ccccc12)C(C)(C)C [(R)-5F-MDMB-PINACA (2)]"
value = 8.7

[[record]]
compound = "CC(C)[C@@H](NC(=O)c1nn(CC2CCCCC2)c2ccccc12)C(N)=O [(R)-AB-[…] (11)]"
value = 1.61

[[record]]
compound = "COC(=O)[C@H](NC(=O)c1nn(CCCCF)c2ccccc12)C(C)(C)C [(R)-4F-MDMB-BINACA (4)]"
value = 4.74


---

The following molecules are listed with their measured T1/2 values.
test system: pooled human cryopreserved hepatocytes (pHHeps); assay: Metabolic stability, pooled human cryopreserved hepatocyte incubations; settings: pHHeps 0.25 million cells mL^−1, 0.5 µM, 37 °C, n ≥ 3 ± SD
measurement.label: T1/2 (min)

[[record]]
molecule = "COC(=O)[C@@H](NC(=O)c1nn(CCCCF)c2ccccc12)C(C)(C)C [(S)-4F-MDMB-BINACA (4)]"
measurement_label = "T1/2"
value = 16

[[record]]
molecule = "COC(=O)[C@H](NC(=O)c1nn(CCCCCF)c2ccccc12)C(C)(C)C [(R)-5F-MDMB-PINACA (2)]"
measurement_label = "T1/2"
value = 23

[[record]]
molecule = "CC(C)[C@@H](NC(=O)c1nn(Cc2ccc(F)cc2)c2ccccc12)C(N)=O [(R)-AB-FUBINACA (8)]"
measurement_label = "T1/2"
value = 69


---

The following compounds are listed with their measured % parent compound remaining, Average values.
experiment: Metabolic stability, pooled human liver microsome incubations; details: pHLM, 30 min
measurement.label: % parent compound remaining, Average (%)

[[record]]
compound = "C=CCCCn1cc(C(=O)N[C@@H](C(=O)OC)C(C)C)c2ccccc21 [(R)-AMB-4en-PICA (7)]"
measurement_label = "% parent compound remaining, Average"
value = 1.6

[[record]]
compound = "COC(=O)[C@@H](NC(=O)c1nn(Cc2ccc(F)cc2)c2ccccc12)C(C)(C)C [(S)-MDMB-FUBINACA (6)]"
measurement_label = "% parent compound remaining, Average"
value = 16.4

[[record]]
compound = "COC(=O)[C@@H](NC(=O)c1nn(Cc2ccc(F)cc2)c2ccccc12)C(C)C [(S)-AMB-FUBINACA (1)]"
measurement_label = "% parent compound remaining, Average"
value = 0.3

[[record]]
compound = "CC(C)[C@H](NC(=O)c1nn(Cc2ccc(F)cc2)c2ccccc12)C(N)=O [(S)-AB-FUBINACA (8)]"
measurement_label = "% parent compound remaining, Average"
value = 79.6

[[record]]
compound = "C=CCCCn1cc(C(=O)N[C@H](C(=O)OC)C(C)C)c2ccccc21 [(S)-AMB-4en-PICA (7)]"
measurement_label = "% parent compound remaining, Average"
value = 3.0

[[record]]
compound = "C=CCCCn1nc(C(=O)N[C@@H](C(=O)OC)C(C)(C)C)c2ccccc21 [(R)-MDMB-4en-PINACA (5)]"
measurement_label = "% parent compound remaining, Average"
value = 2.5

[[record]]
compound = "C=CCCCn1cc(C(=O)N[C@@H](C(=O)OC)C(C)(C)C)c2ccccc21 [(R)-MDMB-4en-PICA (12)]"
measurement_label = "% parent compound remaining, Average"
value = 1.7

[[record]]
compound = "COC(=O)[C@@H](NC(=O)c1nn(CCCCF)c2ccccc12)C(C)(C)C [(S)-4F-MDMB-BINACA (4)]"
measurement_label = "% parent compound remaining, Average"
value = 17.0

